system: RXRa homodimer (NR concentration 180 nM); experiment: PBM binding z-score (relative to random genomic background probes); higher = stronger binding; sequences stand for … in GC…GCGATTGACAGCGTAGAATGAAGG
// thresholds for PBM binding z-score classes: low (below 1), middle (1 to below 5), high (5 or more)

Solved cases below.
sequence code: CAAACTAGGTCTAAGGTCAAAGTCGAGCCAACCA
discrete label: high
--
sequence code: AGAATGAGGTTATAAGTAGATCAGGGAAGAAAGT
discrete label: middle
--
sequence code: TCAAATAGGTAATACAGGTGAAAGTCGGCATCTA
discrete label: middle
--
sequence code: AGAACGAGCGCAATGAGTTGATAGCACGGGTGGC
discrete label: low
--
sequence code: AGGCAAAGTTCATCTAGGTAACGTAAGATATGCT
discrete label: middle

q: Which of the defined bands does the recorded PBM binding z-score of ATATGTAGGTTAGCTGGGGTCATTGAGACTAGGC sit within?
a: high

q: Which of the defined bands does the recorded PBM binding z-score of CGTCCAAGGTCAACGGTCAGTGAAGAGATGACGG sit within?
a: high

###

system: RARg:RXRa (NR concentration 270 nM, RXRa partner concentration 90 nM); experiment: PBM binding z-score (relative to random genomic background probes); higher = stronger binding; sequences stand for … in GC…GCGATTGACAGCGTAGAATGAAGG
reported endpoint: PBM binding z-score
Would you mind answering with just the numeric figure?

Reference set (5 entries):
sequence code: ATCTTTAGGTAAAGTTCAGTGAAAGATCGATAGA
PBM binding z-score: 1.99
--
sequence code: GTACCAAGGTGAATAGGTCCTTGATGAGTAGGCG
PBM binding z-score: 0.974
--
sequence code: TCTAGTTTGTCAAAGGTCACACACTCGAAATGCG
PBM binding z-score: 6.06
--
sequence code: ATCTCTAGGTAACAAGTTCAGTGCAAGAGAGGAC
PBM binding z-score: 1.28
--
sequence code: CGTCCATGGTCATAGGAGGTCAGTGAAGACAGAT
PBM binding z-score: 2.87

q: Return reported PBM binding z-score. Input sequence: TAGCCTTGGTCAGATCGGGCCAGTATACGCTATA
a: -0.284

q: Return reported PBM binding z-score. Input sequence: CCTGCTAGGTCATGGTCAGCTACTCTACAGTATG
a: 3.94

q: Return reported PBM binding z-score. Input sequence: GCATATAGGCAATACAAGGTGAAAGTCCGATTGT
a: 0.477

q: Return reported PBM binding z-score. Input sequence: ATCTCTAGGTAACCCAGTTCAGTGAATGCCGAAC
a: 0.714

q: Return reported PBM binding z-score. Input sequence: CCAAGCAGGCCAGGGTCACTCAAGCATTTCGCTT
a: 3.16

q: Return reported PBM binding z-score. Input sequence: GCTCGGAGGAAAAGGTCAGAGCTTTGTCCGTAGA
a: 4.34

q: Return reported PBM binding z-score. Input sequence: GCAGACAGGTGAAACGCAGGTAACGCAGGGTGGC
a: 1.13

q: Return reported PBM binding z-score. Input sequence: GTACCCAGGTGAATAGGTCGTTGATGAGTAGGCG
a: 1.5

###

# Lookup of reported PBM binding z-score keyed by entry
system: PPARg:RXRa IVT, anti-PPARg (NR concentration 270 nM, RXRa partner concentration 90 nM); assay: PBM binding z-score (relative to random genomic background probes); higher = stronger binding; sequences stand for … in GC…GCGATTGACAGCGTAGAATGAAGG
Would you mind answering with just the numeric figure?

Reference set (5 entries):
sequence code: CTTACTGGGCCATTCAGAGGTCATTGATCATATG
system tested: PPARg:RXRa IVT, anti-PPARg (NR concentration 270 nM, RXRa partner concentration 90 nM)
PBM binding z-score: 6.21
//
sequence code: GCTCGGAGGACAATGTCAGAGCTTTGTCCGTAGA
system tested: PPARg:RXRa IVT, anti-PPARg (NR concentration 270 nM, RXRa partner concentration 90 nM)
PBM binding z-score: -0.513
//
sequence code: TCGAGTGGGTTAGTCGGGGCATTCAGCCAACATA
system tested: PPARg:RXRa IVT, anti-PPARg (NR concentration 270 nM, RXRa partner concentration 90 nM)
PBM binding z-score: 1.4
//
sequence code: TCTTGTAGATCAGCAGGTTAATAAAGCTGGCCAA
system tested: PPARg:RXRa IVT, anti-PPARg (NR concentration 270 nM, RXRa partner concentration 90 nM)
PBM binding z-score: 0.368
//
sequence code: CCTTACGGGTCACTACAGGTTATAGCATCGGAGT
system tested: PPARg:RXRa IVT, anti-PPARg (NR concentration 270 nM, RXRa partner concentration 90 nM)
PBM binding z-score: 3.21

q: Look up and report measured PBM binding z-score (PPARg:RXRa IVT, anti-PPARg (NR concentration 270 nM, RXRa partner concentration 90 nM)) for the following sequence: TCGAGTACGTTAGGGGCATTCAGAATGGCGTCGA
a: -0.595

q: Look up and report measured PBM binding z-score (PPARg:RXRa IVT, anti-PPARg (NR concentration 270 nM, RXRa partner concentration 90 nM)) for the following sequence: GCTGCTAGGTCAAGTGATGGTCAGCTAAAGCTCG
a: 4.05

q: Look up and report measured PBM binding z-score (PPARg:RXRa IVT, anti-PPARg (NR concentration 270 nM, RXRa partner concentration 90 nM)) for the following sequence: AGAACGAGGACAATGAGTTGATAGCACGGGTGGC
a: 0.378

q: Look up and report measured PBM binding z-score (PPARg:RXRa IVT, anti-PPARg (NR concentration 270 nM, RXRa partner concentration 90 nM)) for the following sequence: AGTCAAAGTTCAGGACGAGGTAACCTAAAGCACG
a: 2.2

q: Look up and report measured PBM binding z-score (PPARg:RXRa IVT, anti-PPARg (NR concentration 270 nM, RXRa partner concentration 90 nM)) for the following sequence: GATACAGGGTCCGCTAGAGGCCAGAGTATGGAAA
a: -0.762

q: Look up and report measured PBM binding z-score (PPARg:RXRa IVT, anti-PPARg (NR concentration 270 nM, RXRa partner concentration 90 nM)) for the following sequence: CGAACGAGGGGATGAGTTGATAGCAAATGCCGAT
a: 0.068

q: Look up and report measured PBM binding z-score (PPARg:RXRa IVT, anti-PPARg (NR concentration 270 nM, RXRa partner concentration 90 nM)) for the following sequence: CATACAGGGTCAGCTAGGCTAGAGTAGGGACGGC
a: 2.32

Where these numbers come from: the supplement of paper PMC6555819
